This collection of values is drawn from ChEMBL document CHEMBL4513146.

# System: Escherichia coli
# measurement setup: Concentration 32 ug.mL-1;; ASSAY_TEST Inhibition of Bacterial Growth; detection method Absorption (OD600); MEDIA CAMHB; plate type 384well; NBS; CORNING #3640; time 18 hr
# Description: Antibacterial activity against Escherichia coli ATCC 25922 (CO-ADD:GN_001); MIC in CAMBH media using NBS plates, by OD(600)
Potency and affinity values are given separately.
Assignment: determine reported Inhibition for the given compounds.
Answers are plain numbers, in %.

// solved cases for Inhibition follow
structure	endpoint unit	Inhibition
CCCn1c(=O)c2sccc2n2c(=O)n(CC(=O)c3ccc(OC)c(OC)c3)nc12	%	-1.62
O=C(Cn1nc2c3sc(N4CCCC4)nc3ncn2c1=O)Nc1ccc(F)c(Cl)c1	%	1.03

// for each compound in input: emit Inhibition
1. Cc1ccc(NC(=O)Cn2nc3c(Oc4cccc(C)c4C)nccn3c2=O)c(Br)c1
2. Cc1ccccc1N1CCN(c2nccn3c(=O)n(CC(=O)NCc4cc(F)cc(F)c4)nc23)CC1
3. CCc1nnc2c(=O)n(CC(=O)Nc3ccc(Br)cc3F)c3ccccc3n12

Result:
[-4.42, -0.75, 3.54]

// for each compound in input: emit Inhibition
1. COc1ccccc1-n1ccn2c(=O)n(Cc3ccc(F)cc3Cl)nc2c1=O
2. COc1cccc(Oc2nccn3c(=O)n(CC(=O)NCc4ccc(SC)cc4)nc23)c1
3. CCOc1ccc(-n2ccn3c(SCC#N)nnc3c2=O)cc1
4. O=C(CSc1nnc2c(=O)n(-c3ccccc3)ccn12)Nc1ccccc1F

Result:
-2.36
2.64
2.37
1.53

Task: // Inhibition lookup, key: `Cc1c(Cl)cccc1-n1ccn2c(=S)[nH]nc2c1=O`
Result: 0.89

----------
# System: Staphylococcus aureus
# measurement setup: Concentration 32 ug.mL-1;; ASSAY_TEST Inhibition of Bacterial Growth; detection method Absorption (OD600); MEDIA CAMHB; plate type 384well; NBS; CORNING #3640; time 18 hr
# Description: Antibacterial activity against Staphylococcus aureus MRSA ATCC 43300 (CO-ADD:GP_020); MIC in CAMBH media, using NBS plates, by OD(600)
Potency and affinity values are given separately.
observed property: Inhibition (%)
One number for each entry, in %.

// solved cases for Inhibition follow
molecule	experimental system	Inhibition, %
Cc1ccc(-n2ccn3c(=O)n(Cc4cccc(Cl)c4)nc3c2=O)cc1C	Staphylococcus aureus	7.38
CCc1nnc2c(=O)n(CC(=O)Nc3cccc(C#N)c3)c3ccccc3n12	Staphylococcus aureus	13.48
COc1ccc(CNC(=O)CCc2nnc3ccc(-c4ccccc4)nn23)cc1OC	Staphylococcus aureus	1.5
COc1cc(OC)c(NC(=O)Cn2nc3c(Oc4ccccc4)nccn3c2=O)cc1Cl	Staphylococcus aureus	-15.01
CCOc1ccc(-n2ccn3c(SC(CC)C(=O)Nc4cc(F)ccc4F)nnc3c2=O)cc1 (stereo not given)	Staphylococcus aureus	7.7

// for each molecule in input: emit Inhibition
1. CCOc1ccc(NC(=O)Cn2nc3c(Sc4ccc(C)cc4C)nccn3c2=O)cc1
2. CCc1ccc(NC(=O)Cn2nc3ccc(SC4CCCCC4)nn3c2=O)cc1
3. CCOc1ccc(NC(=O)Cn2nc3c4cc(-c5ccc(C)c(C)c5)nn4ccn3c2=O)cc1
4. C=Cc1ccc(CN(c2ccc(C(C)C)cc2)S(=O)(=O)c2cccn3c(C)nnc23)cc1
5. Cc1ccc(Oc2nccn3c(=O)n(CC(=O)Nc4ccc(F)cc4F)nc23)cc1

Result:
0.32
16.16
-9.23
-12.1
19.59

----------
# Tested on: Staphylococcus aureus
# measurement setup: Concentration 32 ug.mL-1;; ASSAY_TEST Inhibition of Bacterial Growth; detection method Absorption (OD600); MEDIA CAMHB; plate type 384well; NBS; CORNING #3640; time 18 hr
Potency and affinity values are given separately.
observed property: Inhibition (%)
One number for each entry, in %.

// solved cases for Inhibition follow
structure	Inhibition, %
C=Cc1ccc(CN(c2ccc(F)c(F)c2)S(=O)(=O)c2cccn3cnnc23)cc1	-2.72
Cc1ccc(NC(=O)Cn2c(=O)c3nnc(C(C)C)n3c3ccccc32)c(C)c1	15.48

// for each compound in input: emit Inhibition
1. Cc1cc(C)c(NC(=O)Cn2nc3c4cc(-c5ccc(C)c(C)c5)nn4ccn3c2=O)c(C)c1
2. CC(C)CCn1c(=O)c2ccc(C(=O)NC3CCCCC3)cc2n2c(=O)n(CC#N)nc12
3. Cc1ccc(Oc2nccn3c(=O)n(CC(=O)Nc4cccc(Br)c4)nc23)cc1
4. COc1ccc(N2CCN(C(=O)Cn3nc4c(Oc5cccc(C)c5C)nccn4c3=O)CC2)cc1
5. Cc1ccc(-c2nnc3c(=O)n(CC(=O)Nc4cc(C)cc(C)c4)c4ccccc4n23)cc1
6. Cc1cc2nn(CC(=O)Nc3ccc(F)cc3C)c(=O)n2c(Nc2ccc(F)cc2)n1
7. CCCNC(=O)Cn1nc2n(Cc3ccco3)c(=O)c3sccc3n2c1=O
8. COc1ccc(NC(=O)CSc2nc3ccccc3n3c(C(C)C)nnc23)c(OC)c1

Result:
1: -7.12; 2: 5.76; 3: 4.81; 4: 7.43; 5: 10.86; 6: 9.22; 7: 2.17; 8: 1.68

// for each compound in input: emit Inhibition
1. NC(=O)CSc1nnc2c(=O)n(-c3ccc(F)cc3)ccn12
2. Cc1cc2nn(CC(=O)N3CCCC3)c(=O)n2c(Nc2ccc(C)c(F)c2)n1
3. COc1ccccc1NC(=O)Cn1c(=O)c2nnc(C(C)C)n2c2ccccc21
4. COc1ccc(Cn2nc3ccc(-c4ccc(Cl)cc4)nn3c2=O)cc1F
5. CCCCOc1ccc(-c2cc3c4nnc(SCC(=O)N(CC)c5ccccc5)n4ccn3n2)cc1
6. CCN(CCCNC(=O)CCc1nnc2ccc(-c3ccccc3)nn12)c1ccccc1

Result:
1. 22.03
2. 5.2
3. 22.81
4. 12.92
5. 7.98
6. 5.66

// for each compound in input: emit Inhibition
1. COc1ccccc1-n1ccn2c(SCC(=O)N3CCN(c4ccccc4F)CC3)nnc2c1=O
2. CCc1ccc(NC(=O)CSc2nnc3ccc(C(=O)Nc4cccc(F)c4)cn23)cc1
3. O=C(Cn1nc2c(Oc3ccccc3)nccn2c1=O)Nc1ccc2c(c1)OCCO2
4. COc1ccc(CN(c2ccc(F)cc2)S(=O)(=O)c2cccn3c(C)nnc23)cc1

Result:
1. 13.15
2. 9.49
3. 7.17
4. 15.23

----------
# Test system: Escherichia coli
# measurement setup: Concentration 32 ug.mL-1;; ASSAY_TEST Inhibition of Bacterial Growth; detection method Absorption (OD600); MEDIA CAMHB; plate type 384well; NBS; CORNING #3640; time 18 hr
Potency and affinity values are given separately.
Assignment: determine reported Inhibition for the given molecules.
One number for each entry, in %.

// solved cases for Inhibition follow
molecule	Inhibition [%]
Cc1nnc2c(SCC(=O)Nc3ccc4c(c3)OCCO4)nc3ccccc3n12	3.38
Cc1cccc(C)c1NC(=O)CSc1nnc2c3cc(-c4ccccc4)nn3ccn12	-21.37
Cc1ccc(Oc2nccn3c(=O)n(CC(=O)N4CCN(c5ccccc5F)CC4)nc23)cc1	-0.59
COc1ccc(-c2cc3c4nn(CC(=O)Nc5cccc(OC)c5)c(=O)n4ccn3n2)cc1	-0.95
COc1cccc(CN(c2ccc(F)c(F)c2)S(=O)(=O)c2ccc3nncn3c2)c1	-13.18

// for each molecule in input: emit Inhibition
1. Cc1cccc(C)c1NC(=O)Cn1nc2c(Sc3ccccc3)nccn2c1=O
2. CCc1nnc2ccc(S(=O)(=O)N(Cc3ccc(OC)c(F)c3)c3ccccc3)cn12
3. COc1ccc(NC(=O)Cn2nc3cc(C)nc(Nc4ccc(F)cc4)n3c2=O)cc1F
4. CCc1nnc2ccc(S(=O)(=O)N(Cc3ccccc3)c3ccccc3)cn12
5. Cc1cc(C)c(NC(=O)Cn2nc3c(SC4CCCCC4)nccn3c2=O)c(C)c1
6. Cc1oc(-c2ccccc2)nc1CSc1nc2ccccc2n2c(C(C)C)nnc12
7. COCCCNC(=O)CSc1nnc2c(=O)n(Cc3ccccc3F)ccn12
8. O=C(Cn1nc2c(Oc3ccccc3)nccn2c1=O)Nc1ccc2c(c1)OCO2

Result:
-13.17
-2.03
-0.97
-2.89
-1.77
-5.26
0.71
-7.1

----------
Assignment: determine reported Inhibition for the given compounds.
# Test system: Escherichia coli
# measurement setup: Concentration 32 ug.mL-1;; ASSAY_TEST Inhibition of Bacterial Growth; detection method Absorption (OD600); MEDIA CAMHB; plate type 384well; NBS; CORNING #3640; time 18 hr
Measured potencies and affinities stand elsewhere.

structure	Inhibition
CCCNC(=O)Cn1nc2n(Cc3ccco3)c(=O)c3sccc3n2c1=O	-0.94%
COc1ccc(-c2cc3c4nn(CC(=O)Nc5ccc(F)cc5)c(=O)n4ccn3n2)cc1	-7.82%
Cc1cc(C)cc(Nc2nc(C)cc3nn(CC(=O)Nc4cc(F)cc(F)c4)c(=O)n23)c1	-2.61%
COc1cccc(Oc2nccn3c(=O)n(CC(=O)Nc4cc(F)ccc4F)nc23)c1	-7.76%
O=C(Cn1nc2c(Oc3ccc(Cl)cc3)nccn2c1=O)Nc1ccc2c(c1)OCO2	-7%
O=C1CCCN1c1ccc(Cn2nc3ccc(-c4ccccc4)nn3c2=O)cc1	-6.97%
C=Cc1ccc(Cn2nc3c(=O)n(-c4cccc(Cl)c4C)ccn3c2=O)cc1	-4.95%
CCc1nnc2c(S(=O)(=O)N(Cc3ccc(F)cc3)c3ccc(Cl)cc3)cccn12	-2.23%

// for each compound in input: emit Inhibition
1. COc1ccccc1Cn1c(=O)c2sccc2n2c(=O)n(Cc3ccc(Br)cc3)nc12
2. O=C(Cn1nc2c3c4c(sc3ncn2c1=O)CCCC4)NCc1ccc(F)cc1

Result:
1. 2.24%
2. -4.83%
